Target: Cytochrome P450 1A2 (Homo sapiens) (UniProt P05177)
Sequence (P05177 whole entry, looked up): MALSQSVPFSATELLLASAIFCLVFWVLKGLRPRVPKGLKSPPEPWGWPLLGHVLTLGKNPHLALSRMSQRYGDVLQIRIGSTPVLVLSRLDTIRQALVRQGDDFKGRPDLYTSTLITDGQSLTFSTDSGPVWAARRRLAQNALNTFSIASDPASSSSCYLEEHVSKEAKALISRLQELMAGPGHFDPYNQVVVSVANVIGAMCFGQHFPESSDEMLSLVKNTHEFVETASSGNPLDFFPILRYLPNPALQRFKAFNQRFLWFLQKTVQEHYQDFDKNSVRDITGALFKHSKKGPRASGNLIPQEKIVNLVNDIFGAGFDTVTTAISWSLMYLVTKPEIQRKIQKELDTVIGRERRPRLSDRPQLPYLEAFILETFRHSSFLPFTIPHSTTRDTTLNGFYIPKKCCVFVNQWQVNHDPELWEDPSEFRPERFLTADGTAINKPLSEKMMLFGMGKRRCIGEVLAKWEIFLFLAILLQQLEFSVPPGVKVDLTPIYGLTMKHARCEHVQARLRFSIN
Experiment: Cytochrome panel assay with activity outcomes
Conditions: recombinant CYP, pro-luciferin dealkylation, luminescence, p450-cyp1a2; series mostly up to 57.1 µM
Description: The P450 gene superfamily is involved in the metabolism and clearance of xenobiotics. This assay used various human CYP P450 isozymes to measure the dealkylation of various pro-luciferin substrates to luciferin. The luciferin is then measured by luminescence after the addition of a luciferase detection reagent. […] Inhibitors and some substrates limit the production of luciferin, and decrease measured luminescence. […] 8, Detection, 1 sec, ViewLux luminescent read […]
The whole screen tested about 16,000 compounds, of which about 5,700 (36%) were called active. Roughly 24% stayed inconclusive and do not appear here. Calls follow the shape of the dose curve; as a rule, active = well fitted curve in the direction sought with a large enough effect; inconclusive = small, poorly fitted or top-dose-only effect, or effect the other way; inactive = no such curve, though single readings can be large or run the other way. Some of the results follow.
Classes used: true (1) = active, false (0) = inactive

| Compound | Tgt | Assigned class |
| --- | --- | --- |
| CC(=O)Oc1cc(C(F)(F)F)ccc1C(=O)O | Cytochrome P450 1A2 (Homo sapiens) (UniProt P05177) | false (0) |
| CSc1nnc(-c2cc3c(-c4ccccc4)nn(C)c3s2)n1C | Cytochrome P450 1A2 (Homo sapiens) (UniProt P05177) | true (1) |
| O=C(/C=C/c1ccc2c(c1)OCO2)NCCSCc1cccc(Cl)c1 | Cytochrome P450 1A2 (Homo sapiens) (UniProt P05177) | true (1) |
| c1ccc2c(c1)-c1nc3ccccc3cc1[C@H]2N1CCOCC1 | Cytochrome P450 1A2 (Homo sapiens) (UniProt P05177) | true (1) |
| O=c1c2ccc(Cl)cc2nc(-c2cccc(C(F)(F)F)c2)n1O | Cytochrome P450 1A2 (Homo sapiens) (UniProt P05177) | true (1) |
| Cc1cc(C(C#N)c2cccc(Cl)c2)n2ncnc2n1 (stereo unspecified) | Cytochrome P450 1A2 (Homo sapiens) (UniProt P05177) | true (1) |
| Cc1ccc(C(C(=O)NC2CCCCC2)N(CC2CCCO2)C(=O)CNC(=O)c2cccs2)cc1 (stereo unspecified) | Cytochrome P450 1A2 (Homo sapiens) (UniProt P05177) | false (0) |
| CCOc1ccc(C(F)(F)F)cc1NC(=O)c1ccc(OC)c([N+](=O)[O-])c1 | Cytochrome P450 1A2 (Homo sapiens) (UniProt P05177) | true (1) |
| COc1ccc(C(=O)N2CCC3(CCCN(C)C3)CC2)cc1 | Cytochrome P450 1A2 (Homo sapiens) (UniProt P05177) | false (0) |
| O=C(Cn1nc(C(F)F)cc1C(F)F)N/N=C/c1ccc2c(c1)OCO2 | Cytochrome P450 1A2 (Homo sapiens) (UniProt P05177) | true (1) |
| CCOc1ccc(C(F)(F)F)cc1NC(C)=O | Cytochrome P450 1A2 (Homo sapiens) (UniProt P05177) | true (1) |

----------
Target: Cytochrome P450 1A2 (Homo sapiens)
Assay: Cytochrome panel assay with activity outcomes
Conditions: recombinant CYP, pro-luciferin dealkylation, luminescence, p450-cyp1a2; series mostly up to 57.1 µM
The whole screen tested about 16,000 compounds, of which about 5,700 (36%) were called active. Inconclusive results (about 24%) are left out. The call rests on the fitted dose curve; in most records, active means well fitted curve in the direction sought with a large enough effect; inconclusive means small, poorly fitted or top-dose-only effect, or effect the other way; inactive means no such curve, though single readings can be large or run the other way. The list shows a part of the results.
Outcomes: active, inactive

| Structure smiles string | Assigned class |
| --- | --- |
| CN(C)c1ncc2nc(-c3ccc(Cl)cc3)c(=O)n(Cc3ccc(F)cc3)c2n1 | active |
| Cc1nc2cnc(N(C)C)nc2n(Cc2ccc(F)cc2)c1=O | active |
| CN(C)c1ncc2nc(-c3cc(F)cc(F)c3)c(=O)n(Cc3ccc(F)cc3)c2n1 | inactive |
| Cc1nnc(-c2cnn(-c3ccccc3)c2N)n1Cc1ccc(F)cc1 | inactive |
| CN(C)c1ncc2nc(-c3ccc(F)cc3)c(=O)n(Cc3ccc(F)cc3)c2n1 | inactive |

----------
Molecular target: Cytochrome P450 1A2 (Homo sapiens) (UniProt P05177)
Assay: Cytochrome panel assay with activity outcomes
Conditions: recombinant CYP, pro-luciferin dealkylation, luminescence, p450-cyp1a2; series mostly up to 57.1 µM
Hit rate of the full screen: of about 16,000 compounds, about 5,700 (36%) were called active. About 24% were inconclusive and are not listed. Calls come from the whole dose curve; as a rule, active = well fitted curve in the direction sought with a large enough effect; inconclusive = small, poorly fitted or top-dose-only effect, or effect the other way; inactive = no such curve, though single readings can be large or run the other way. The list shows a part of the results.
Labels: active, inactive

| Compound | Tgt | Assigned class |
| --- | --- | --- |
| COc1ccc(/C=C(/C#N)C(=O)NC2CCCCC2)cc1Br | Cytochrome P450 1A2 (Homo sapiens) (UniProt P05177) | inactive |
| CCOC(=O)CSc1nc(-c2ccccc2)nc2ccccc12 | Cytochrome P450 1A2 (Homo sapiens) (UniProt P05177) | active |
| O=C(N/N=C/c1cccc([N+](=O)[O-])c1)c1cc2c(ccc3ccccc32)o1 | Cytochrome P450 1A2 (Homo sapiens) (UniProt P05177) | active |
| O=C1c2ccccc2-c2n[nH]c3cccc1c23 | Cytochrome P450 1A2 (Homo sapiens) (UniProt P05177) | active |
| CCN(CC)C(=O)N1CCN(C)CC1 | Cytochrome P450 1A2 (Homo sapiens) (UniProt P05177) | inactive |
| O=C(O)Cn1c(-c2ccccc2)nc2ccccc21 | Cytochrome P450 1A2 (Homo sapiens) (UniProt P05177) | inactive |
| Cc1ccccc1-n1nc2c(c1NC(=O)c1c(-c3ccccc3Cl)noc1C)CSC2 | Cytochrome P450 1A2 (Homo sapiens) (UniProt P05177) | inactive |
| CCCCn1nnnc1SCC(=O)c1cc(Cl)ccc1OC | Cytochrome P450 1A2 (Homo sapiens) (UniProt P05177) | active |
| N#C/C(=C\c1cc(Cl)cc(Cl)c1O)C(=O)NC1CCCCC1 | Cytochrome P450 1A2 (Homo sapiens) (UniProt P05177) | active |
| Cc1cccc(C(=O)NC2CCN(C(=O)N3CCOCC3)CC2)c1 | Cytochrome P450 1A2 (Homo sapiens) (UniProt P05177) | inactive |
| Cc1nn(CC(=O)NCCN2CCOCC2)c(C)c1[N+](=O)[O-] | Cytochrome P450 1A2 (Homo sapiens) (UniProt P05177) | inactive |
| CN(Cc1ccco1)c1ccnc(-c2cccc(NS(C)(=O)=O)c2)n1 | Cytochrome P450 1A2 (Homo sapiens) (UniProt P05177) | active |
| COC(=O)c1ccc(C(NC(=O)c2ccco2)[C@]2(C)C[C@H]2C2CCCCC2)cc1 (stereo partly drawn) | Cytochrome P450 1A2 (Homo sapiens) (UniProt P05177) | inactive |
| CN(C)c1ccnc(-c2cccc(NS(C)(=O)=O)c2)n1 | Cytochrome P450 1A2 (Homo sapiens) (UniProt P05177) | active |
| COC(=O)N1CCC2(CC1)CN(C(c1ccccc1)c1ccccc1)C2 | Cytochrome P450 1A2 (Homo sapiens) (UniProt P05177) | inactive |
| Cc1ccc(S(=O)(=O)O/N=C2/CCCc3occc32)cc1 | Cytochrome P450 1A2 (Homo sapiens) (UniProt P05177) | inactive |
| O=C(CSc1nc2ccccc2o1)Nc1nc2ccccc2s1 | Cytochrome P450 1A2 (Homo sapiens) (UniProt P05177) | active |
| CC(C)CC(C(=O)NCC1CCCO1)N(C(=O)Cn1nnc(-c2ccc(F)cc2)n1)c1ccccc1F (stereo not drawn) | Cytochrome P450 1A2 (Homo sapiens) (UniProt P05177) | inactive |
| Cc1ccc(C(=O)N2CCN(c3cc(=O)[nH]nc3-c3ccccc3)CC2)cc1 | Cytochrome P450 1A2 (Homo sapiens) (UniProt P05177) | inactive |
| O=C(NC(C(=O)c1ccccc1)n1cnccc1=O)c1ccccc1 (stereo not drawn) | Cytochrome P450 1A2 (Homo sapiens) (UniProt P05177) | inactive |
| Cc1ccc(-n2nc3c(c2NC(=O)c2cccs2)CSC3)cc1 | Cytochrome P450 1A2 (Homo sapiens) (UniProt P05177) | active |
| CN(C)c1ncc2nc(-c3ccc(Cl)cc3)c(=O)n(Cc3cccs3)c2n1 | Cytochrome P450 1A2 (Homo sapiens) (UniProt P05177) | active |
| COc1ccc(-c2nc3cnc(N(C)C)nc3n(Cc3cccs3)c2=O)cc1 | Cytochrome P450 1A2 (Homo sapiens) (UniProt P05177) | active |

----------
Biological target: Cytochrome P450 1A2 (Homo sapiens) (UniProt P05177)
Assay: Cytochrome panel assay with activity outcomes
Conditions: recombinant CYP, pro-luciferin dealkylation, luminescence, p450-cyp1a2; series mostly up to 57.1 µM
The whole screen tested about 16,000 compounds, of which about 5,700 (36%) were called active. Not shown: some 24% with an inconclusive outcome. Calls follow the shape of the dose curve; as a rule, active = well fitted curve in the direction sought with a large enough effect; inconclusive = small, poorly fitted or top-dose-only effect, or effect the other way; inactive = no such curve, though single readings can be large or run the other way. Some of the results follow.
Labels: active, inactive

| Compound | Assigned class |
| --- | --- |
| CN1CCc2cc(NC(=O)Nc3cccnc3)ccc21 | active |
| Nc1ncnc2c1nc(Sc1ccc(Cl)cc1)n2[C@@H]1O[C@H]2COP(=O)(O)O[C@@H]2[C@H]1O | inactive |
| Cc1c(CC(C)(C)C(=O)O)n(Cc2ccc(Cl)cc2)c2ccc(F)cc12 | active |
| CC(=O)Nc1ccc(NC(=O)C2CCN(S(=O)(=O)c3cccc4nonc34)CC2)cc1 | inactive |
| COC(=O)c1ccc(NC(=O)N2CCC(O)(c3cccnc3)CC2)cc1 | inactive |
| CS(=O)(=O)c1ccc(Cn2c3c(c4cc(F)cc(F)c42)CCC[C@H]3CC(=O)O)cc1 | inactive |
| CC1CCN(C(=O)CSc2nc3cccnc3n2C)CC1 | active |
| Cc1ccc(-c2ccc(CCC(=O)O)n2CC2CCCO2)cc1 (stereo not given) | inactive |
| CSC(=N)N | inactive |
| N[C@H](CCC(=O)NCC(=O)O)C(=O)O | inactive |
| NC(=O)C1CCN(C(=O)CN2C(=O)c3ccccc3S2(=O)=O)CC1 | inactive |
| Cc1ccc(-c2nc(-c3nccc4ccccc34)oc2-c2ccccc2)cc1 | active |
| Cc1ccc(Sc2nc(C)cc(C)c2S(C)(=O)=O)cc1 | active |
| Nc1ccc(N2C(=O)c3ccccc3C2=O)c(Cl)c1 | inactive |
| Cc1noc(C)c1-c1nccc(N2CCN(C)CC2)n1 | active |
| CC(C)CC(=O)Nc1ccccc1-c1nnn(CC(=O)N2CCc3ccccc3C2)n1 | inactive |
| CSc1nc(N)nc(SCC(=O)Nc2ccc(Cl)cc2)c1C#N | active |
| S=c1[nH]nc(-c2ccncc2)n1CC1CCCO1 (stereo not given) | inactive |
| CO[C@H]1OC[C@@]2(C)[C@@H]3C4=C(CN2C(=O)OC(C)(C)C)[C@H](C)[C@H](CO)[C@H](CO)[C@H]4CC[C@H]13 | inactive |
| CCN(CC)S(=O)(=O)c1cccc(C(=O)N[C@H](C(=O)OCC(=O)NC(=O)NC)C(C)C)c1 | inactive |
| O=C(Nc1cccc(F)c1)N1CCC2(CC1)CCN(C(=O)c1cnccn1)CC2 | inactive |
| CCCN1CCN(CCCNC(=O)Cn2nc(-c3ccc(C)cc3)ccc2=O)CC1 | inactive |
| CCOc1ccc(NC(=O)CSc2nc(C)c3c(c2C#N)CCCC3)cc1 | active |
| Cc1noc(C)c1-c1nccc(-n2ccnc2)n1 | active |
| CCCn1nc(NC(=O)CC(C)C)c2cc3ccccc3nc21 | active |
| CC1CCN(C(=O)C2CCN(S(=O)(=O)c3cccc4nonc34)CC2)CC1 | inactive |
| Oc1cc2c(cc1O)[C@H](c1ccccc1)CNCC2 | inactive |
| CCN1CCC[C@H]1CNC(=O)c1c(OC)ccc(Br)c1OC | inactive |
| COc1cccc(-c2cncnc2NCCc2cnc[nH]2)c1 | active |
| Cc1ccc(Nc2nc(Cl)nc(N(C)C#N)n2)cc1 | active |
| CCOC(=O)c1[nH]c2ccc(Cl)cc2c1-c1ccccc1 | active |
| CCOC(=O)c1c2ccc(OCC(=O)N/N=C/c3ccc(Cl)cc3)cc2n2ccccc12 | active |
| Cn1c(SCC(=O)N2CCN(S(=O)(=O)c3ccccc3)CC2)nc2ccccc21 | inactive |
| CNc1cc(CSC)nc(SCc2ccc(Cl)c(Cl)c2)n1 | active |
| Cc1noc(C)c1C(=O)N1CCC2(CC1)CCN(c1ccncc1)CC2 | inactive |
| CCOC(=O)c1c(C)n(C)c2ccc(OC)c(NC(=O)CN3CCCCC3)c12 | active |
| CCCn1cnc2c(SCc3ccc(Cl)cc3)nc(N)nc21 | active |
| COc1cc2c(cc1OC)C(C(=O)N1CCOCC1)C(c1cccs1)N(C)C2=O (stereo not given) | inactive |
| Cc1nc2ccccc2nc1SCC(=O)N1CCC(C)CC1 | active |
| COc1cc2c(cc1C(F)(F)F)N(C(=O)Nc1cc(F)cc(-c3cccnc3)c1)CC2 | active |
| O=c1[nH]c(=O)c2nc3ccccc3nc2[nH]1 | active |
| FC(F)(F)c1ccccc1-c1cncnc1NCCc1cnc[nH]1 | active |
| CC1CC(C)CN(C(=O)CSc2nnc(CSc3ncccn3)n2C)C1 (stereo not given) | inactive |
| Cc1noc(C)c1-c1cc(N2CCN(C)CC2)ncn1 | active |
| CSc1cc2c(cc1C(F)(F)F)N(C(=O)Nc1cccnc1)CC2 | active |
